Biological target: spike protein of SARS-CoV-2 strain B.1.1.7 (SARS-CoV-2, UniProt P0DTC2 14-1273)
Experiment: cell-based or functional assay
Labelling field: enter true if recorded IC50 (FRNT neutralisation) is less than 0.2 µg/mL. Enter false if it equals or exceeds that cut-off.

Q) I'd appreciate it if you could check whether antibody 158 (antibody, V domains shown, also called mAb 158) VH: EVQLLESGGDLIQPGGSLRLSCAASGVTVSSNYMSWVRQAPGKGLEWVSIIYPGGSTFYADSVKGRFTISRDNSKNTLYLQMHSLRAEDTAVYYCARDLGSGDMDVWGKGTTVTVSS VL: DIVMTQSPSFLSASVGDRVTITCRASQGISSYLAWYQQKPGKAPKLLIQAASTLQSGVPSRFSGSGSGTEFTLTISSLQPEDFATYYCQQLNSYRYTFGQGTKVEIK has IC50 (FRNT neutralisation) smaller than 0.2 µg/mL.
A) false

Q) I'd appreciate it if you could check whether antibody 384 (antibody, V domains shown) VH: EVQLVESGGGLVKPGESLRLSCAASGFTFSDYYMTWIRQAPGKGLEWVSYIRSSGHTIYYADSVKGRFTISRDNAKNSLYLQMNSLRVEDTAVYYCARGGVLRFLEWPLNAFDIWGQGTMVTVSS VL: DIQLTQSPSSLSASVGDRVTITCRASQGISNYLAWYQQKPGKVPKLLIYAASTLQSGVPSRFSGSGSGTDFTLTISSLQPEDVATYYCQKYNNALGTFGQGTKVEIK has IC50 (FRNT neutralisation) smaller than 0.2 µg/mL.
A) true

Q) I'd appreciate it if you could check whether antibody 170 (antibody, V domains shown) VH: QVQLVESGAEVKKPGESLKISCKGSGYSFTSYWIVWVRQMPGKGLEWMGIIYPGDSDTKYSPSFQGQVSISADKPISTAYLQWSRLKASDTAMYYCARLGNWLVDYWGQGTLVTVSS VL: DIVMTQSPLSLSVTPGQPASISCKSSQSLLHSDGKTYLYWYLQKPGQPPQLLMYEVSNRFSGVPDRFSGSGSGTDFTLKISRVESEDVGVYYCMQSIQLPRGITFGQGTRLEIK has IC50 (FRNT neutralisation) smaller than 0.2 µg/mL.
A) true

Q) I'd appreciate it if you could check whether antibody 398 (antibody, V domains shown, also called mAb 398) VH: QVQLVESGGGLVQPGGSLRLSCAASGFTVSSNYMTWVRQAPGKGLEWVSVIYSGGSTYYADSVKGRFTISRDNSKNTLYLQMNSLRADDTAVYYCARDSTADYDFWSGYYVGAFHIWGQGTMVTVSS VL: QTVLTQPASVSGSPGQSITISCTGTSSDVGGYNYVSWYQQHPGKAPKLMIYEVTKRPSGVPDRFSGSKSGNTASLTVSGLQAEDEADYYCSSYAGSNNWVFGGGTKLTVL has IC50 (FRNT neutralisation) smaller than 0.2 µg/mL.
A) true

Q) I'd appreciate it if you could check whether antibody 132 (antibody, V domains shown) VH: QVQLQQWGAGLLKPSETLSLTCAVYGGSFSGYYWSWIRQPPGKGLEWIGEINHSGSTNYNPSLKSRVTISVDTSKNQFSLKLSSVTAADTAVYYCARTDYYDSIDWGQGTLVTVSS VL: QSVLTQEPSLTVSPGGTVTLTCGSSTGAVTSGHYPYWFQQKPGQVPRTLIYDTRNKHSWTPARFSGSLLGGKAALTLSGAQPEDEAEYYCLLSSSGARVFGGGTKLTVL has IC50 (FRNT neutralisation) smaller than 0.2 µg/mL.
A) false

Q) I'd appreciate it if you could check whether antibody 58 (antibody, V domains shown, also called mAb 58) VH: QVQLVESGGGLVQPGRSLRLSCAASGFTFDDYAMHWVRQPPGKGLEWVSGVSWNSGTIGYADSVKGRFIISRDNAKNSLYLQMNSLKAEDTALYYCAREVGGTFGVLISREGGLDYWGQGTLVTVSS VL: SYELTQPPSVSVAPGQTARITCGGNTIGSKSVHWYQQRPGQAPVLVVYDDSDRPSGIPERFSGSNSGNTATLTISRVEAGDEADYYCQVWDSSSDRVVFGGGTKLTVL has IC50 (FRNT neutralisation) smaller than 0.2 µg/mL.
A) true

Q) I'd appreciate it if you could check whether antibody 150 (antibody, V domains shown) VH: QVQLVESGGGLIQPGGSLRLSCAASGVTVSSNYMSWVRQAPGKGLEWVSIIYSGGTTYYADSVKGRFTISRDSSMNTLYLQMNSLRAEDTAVYYCARDLMVYGIDVWGQGTTVTVSS VL: EIVMTQSPSSLSASVGDRVTITCRASQGISSYLAWYQQKPGKAPKLLIYAASTLQSGVPSRFSGSGSGTDFTLTISSLQPEDFATYYCQQLDSYPPGYTFGQGTKVDIK has IC50 (FRNT neutralisation) smaller than 0.2 µg/mL.
A) true

Q) I'd appreciate it if you could check whether antibody 269 (antibody, V domains shown, also called mAb 269) VH: QVQLVESGGGLIQPGGSLRLSCAASGLTVNRNYMSWIRQAPGKGLEWVSVIYSGGSTFYADSVKGRFTISRDNSKNTLSLQMNSLRAEDTAIYYCARDFYEGSFDIWGQGTMVTVSS VL: AIQLTQSPSFLSASIGDRVTITCRASQGISSYLAWYQQKPGKAPKLLIYAASTLQSGVPSRFSGSGSGTEFTLTISSLQPEDFASYYCQQLNSYPAPVFGPGTKVDIK has IC50 (FRNT neutralisation) smaller than 0.2 µg/mL.
A) false

Q) I'd appreciate it if you could check whether antibody 165 (antibody, V domains shown, also called mAb 165) VH: QVQLVQSGPEVKKPGTSVKVSCKASGFTFTSSAVQWVRQARGQRLEWIGWIVVGSGNTNYAQKFQESVTITRDMSTSTAYMELSSLRSEDTAVYYCAAPHCIGGSCHDAFDIWGQGTMVTVSS VL: DIVMTQSPGTLSLSPGERATLSCRASQSVRSSYLAWYQQKPGQAPRLLIYGASRRGTGIPDRFSGSGSGTDFTLTISRLEPEDFAVYYCQQYGSSPWTFGQGTKVEIK has IC50 (FRNT neutralisation) smaller than 0.2 µg/mL.
A) false

Q) I'd appreciate it if you could check whether antibody 88 (antibody, V domains shown, also called mAb 88) VH: QLQLQESGPGLVKPSQTLSLTCTVSGGSISSGSYNWTWIRQPAGKGLEWIGRIYNSGSTNYNPSLKSRVTISVDTSKNQLSLKVRSVTAADTAVYYCARHCSGGTCYPKYYYGMDVWGQGTTVTVSS VL: QSALTQPPSVSEAPRQRVTISCSGSSSNIGNNAVNWYQQFPGKAPKLLIYYDDLLPSGVSDRFSGSKSGTSASLAISGVQSEDEADYYCAAWDDSLNVVVFGGGTKLTVL has IC50 (FRNT neutralisation) smaller than 0.2 µg/mL.
A) true

Q) I'd appreciate it if you could check whether antibody 318 (antibody, V domains shown, also called mAb 318) VH: QVQLVQSGPEVKKPGTSVKVSCKASGFTLTSSAMQWVRQARGQRLEWIGWIVVGSGNTNYAQKFQERVTITRDMSTSTAYMELSSLRSEDTAVYYCAAGRGYNSDFDYWGQGTLVTVSS VL: AIRMTQSPGTLSLSPGERATLSCRASQSVSSSYLAWYQQRPGQAPRLLIYGTSSRATGIPDRFSGSGSGTDFTLTISRLEPEDFAVYYCQQYGYSVYTFGQGTKVDIK has IC50 (FRNT neutralisation) smaller than 0.2 µg/mL.
A) true
